# System: 266295-075-R-J1-PDC spheroid viability
# experiment notes: Anticancer human tumor 266295-075-R-J1-PDC patient-derived head and neck squamous carcinoma cell line growth inhibition [POLQ]
# particulars: second compound 1 µM; first compound 0.316 µM; hits give low values; spheroids with HUVEC and MSC
Each record is given criterion met if its reported viability, T/C is strictly below 80%. Records at or above 80% are given criterion not met.

molecule	answer label
COc1ccc([C@@H](O)c2cc(-c3ncnc4cc(N5CCOCC5)ccc34)c(F)cc2Cl)nn1 + COC1C(OC(N)=O)C(O)C(Oc2ccc3c(O)c(NC(=O)c4ccc(O)c(CC=C(C)C)c4)c(=O)oc3c2C)OC1(C)C	criterion met
O=C(c1cc(Cc2n[nH]c(=O)c3ccccc23)ccc1F)N1CCN(C(=O)C2CC2)CC1 + COC1C(OC(N)=O)C(O)C(Oc2ccc3c(O)c(NC(=O)c4ccc(O)c(CC=C(C)C)c4)c(=O)oc3c2C)OC1(C)C	criterion not met

Now for another entry.
Query: For this molecule, is viability, T/C lower than 80%? C=CC(=O)N1CCN(c2nc(=O)n(-c3c(C)ccnc3C(C)C)c3nc(-c4c(O)cccc4F)c(F)cc23)C(C)C1 (stereo not given) + Nc1ccc(C#CCN(C(=O)Cc2ncc(C(F)(F)F)cc2C(F)(F)F)c2ccc(F)cc2)nn1
Reply: criterion not met

###

# System: 266295-075-R-J1-PDC spheroid viability
# experiment notes: Anticancer human tumor 266295-075-R-J1-PDC cell line growth inhibition [POLQ];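 further: spheroids exposed to compounds for seven days before readout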
# particulars: second compound 1 µM; first compound 10 µM; hits give low values; spheroids with HUVEC and MSC
value type: viability, T/C (%)
Numbers only, in %.

Some entries whose results are on file:
compound	measured on	unit text	viability, T/C
CC1COCCN1c1cc(-c2ccnn2C)c2ccnc(-c3ccn[nH]3)c2n1 (stereo unspecified) + COC1C(OC(N)=O)C(O)C(Oc2ccc3c(O)c(NC(=O)c4ccc(O)c(CC=C(C)C)c4)c(=O)oc3c2C)OC1(C)C	266295-075-R-J1-PDC spheroid viability	%	41
COc1cc(C2c3cc4c(cc3C(OC3OC5COC(C)OC5C(O)C3O)C3COC(=O)C23)OCO4)cc(OC)c1O (stereo unspecified) + COC1C(OC(N)=O)C(O)C(Oc2ccc3c(O)c(NC(=O)c4ccc(O)c(CC=C(C)C)c4)c(=O)oc3c2C)OC1(C)C	266295-075-R-J1-PDC spheroid viability	%	72.2
CC1COCCN1c1cc(C2(S(C)(=N)=O)CC2)nc(-c2ccnc3[nH]ccc23)n1 (stereo unspecified) + COC1C(OC(N)=O)C(O)C(Oc2ccc3c(O)c(NC(=O)c4ccc(O)c(CC=C(C)C)c4)c(=O)oc3c2C)OC1(C)C	266295-075-R-J1-PDC spheroid viability	%	62.2
C#Cc1c(F)ccc2cc(O)cc(-c3ncc4c(N5CC6CCC(C5)N6)nc(OCC56CCCN5CC(F)C6)nc4c3F)c12 (stereo unspecified) + Nc1ccc(C#CCN(C(=O)Cc2ncc(C(F)(F)F)cc2C(F)(F)F)c2ccc(F)cc2)nn1	266295-075-R-J1-PDC spheroid viability	%	54.7
COc1cc2cc(C(=O)CCC(=O)O)sc2cc1OC + Cc1cccc(N(C)C(=O)C2C(O)CCN2c2nc(C)cc(C(F)(F)F)c2C#N)c1	266295-075-R-J1-PDC spheroid viability	%	80.3
COc1cc2cc(C(=O)CCC(=O)O)sc2cc1OC + Nc1ccc(C#CCN(C(=O)Cc2ncc(C(F)(F)F)cc2C(F)(F)F)c2ccc(F)cc2)nn1	266295-075-R-J1-PDC spheroid viability	%	90.9

Hi, could you look up viability, T/C for each item in my list?
1. CC1COCCN1c1cc(C2(O)CC3CCC(C2)O3)c2cnn(-c3ccn[nH]3)c2n1 (stereo unspecified) + Nc1ccc(C#CCN(C(=O)Cc2ncc(C(F)(F)F)cc2C(F)(F)F)c2ccc(F)cc2)nn1
2. CCc1cc2c(N3CCc4c(cc(Cn5ccnc5)cc4-c4cn(C)nc4C(F)(F)F)C3=O)ccnc2c(OC)n1 + Nc1ccc(C#CCN(C(=O)Cc2ncc(C(F)(F)F)cc2C(F)(F)F)c2ccc(F)cc2)nn1
3. COc1ccc([C@@H](O)c2cc(-c3ncnc4cc(N5CCOCC5)ccc34)c(F)cc2Cl)nn1 + Nc1ccc(C#CCN(C(=O)Cc2ncc(C(F)(F)F)cc2C(F)(F)F)c2ccc(F)cc2)nn1

Reply:
1. 25.7
2. 115
3. 29.6

List reported viability, T/C for each of these compounds:
1. COc1cc2cc(C(=O)CCC(=O)O)sc2cc1OC + COC1C(OC(N)=O)C(O)C(Oc2ccc3c(O)c(NC(=O)c4ccc(O)c(CC=C(C)C)c4)c(=O)oc3c2C)OC1(C)C
2. CCc1cc2c(N3CCc4c(cc(Cn5ccnc5)cc4-c4cn(C)nc4C(F)(F)F)C3=O)cc(C)nc2c(OC)n1 + Cc1cccc(N(C)C(=O)C2C(O)CCN2c2nc(C)cc(C(F)(F)F)c2C#N)c1
3. CC(C)n1c(=O)n(C)c2cnc3cc(F)c(-c4ccc(OCCCN5CCCCC5)nc4)cc3c21 + Nc1ccc(C#CCN(C(=O)Cc2ncc(C(F)(F)F)cc2C(F)(F)F)c2ccc(F)cc2)nn1
4. O=c1[nH]cc(F)c(=O)[nH]1 + Cc1cccc(N(C)C(=O)C2C(O)CCN2c2nc(C)cc(C(F)(F)F)c2C#N)c1

Reply:
1: 93.4; 2: 121; 3: 65.3; 4: 96.9

Please go through the list and note viability, T/C for each compound.
1. O=C(Nc1ccc(O)c(NS(=O)(=O)c2ccc(F)cc2)c1)c1ccc(-c2ccccc2)cc1 + Nc1ccc(C#CCN(C(=O)Cc2ncc(C(F)(F)F)cc2C(F)(F)F)c2ccc(F)cc2)nn1
2. C=CC(=O)N1CCN(c2nc(=O)n(-c3c(C)ccnc3C(C)C)c3nc(-c4c(O)cccc4F)c(F)cc23)C(C)C1 (stereo unspecified) + COC1C(OC(N)=O)C(O)C(Oc2ccc3c(O)c(NC(=O)c4ccc(O)c(CC=C(C)C)c4)c(=O)oc3c2C)OC1(C)C
3. CNCc1ccc(-c2[nH]c3cc(F)cc4c3c2CCNC4=O)cc1 + Nc1ccc(C#CCN(C(=O)Cc2ncc(C(F)(F)F)cc2C(F)(F)F)c2ccc(F)cc2)nn1
4. CCc1cc2c(N3CCc4c(cc(Cn5ccnc5)cc4-c4cn(C)nc4C(F)(F)F)C3=O)cc(C)nc2c(OC)n1 + Nc1ccc(C#CCN(C(=O)Cc2ncc(C(F)(F)F)cc2C(F)(F)F)c2ccc(F)cc2)nn1
5. COc1cccc2c1C(=O)c1c(O)c3c(c(O)c1C2=O)CC(O)(C(=O)CO)CC3OC1CC(N)C(O)C(C)O1 (stereo unspecified) + Cc1cccc(N(C)C(=O)C2C(O)CCN2c2nc(C)cc(C(F)(F)F)c2C#N)c1
6. C#Cc1c(F)ccc2cc(O)cc(-c3ncc4c(N5CC6CCC(C5)N6)nc(OCC56CCCN5CC(F)C6)nc4c3F)c12 (stereo unspecified) + Cc1cccc(N(C)C(=O)C2C(O)CCN2c2nc(C)cc(C(F)(F)F)c2C#N)c1
7. CC1COCCN1c1cc(C2(O)CC3CCC(C2)O3)c2cnn(-c3ccn[nH]3)c2n1 (stereo unspecified) + COC1C(OC(N)=O)C(O)C(Oc2ccc3c(O)c(NC(=O)c4ccc(O)c(CC=C(C)C)c4)c(=O)oc3c2C)OC1(C)C

Reply:
1. 91.9
2. 124
3. 119
4. 133
5. 1.59
6. 57.8
7. 34.4

Item: CC(C)n1c(=O)n(C)c2cnc3cc(F)c(-c4ccc(OCCCN5CCCCC5)nc4)cc3c21 + Cc1cccc(N(C)C(=O)C2C(O)CCN2c2nc(C)cc(C(F)(F)F)c2C#N)c1 | viability, T/C: 60.3

###

# Test system: 266295-075-R-J1-PDC spheroid viability
# experiment notes: Anticancer human tumor 266295-075-R-J1-PDC cell line growth inhibition [POLQ]; active means viability on the fitted dose curve at most 10% of control; inactive means the rest;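 further: spheroids exposed to compounds for seven days before readout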
# particulars: second compound 0.0316 µM; first compound 10 µM; spheroids with HUVEC and MSC
# Description: Multicellular complex tumor spheroid response to Polymerase (POL) inhibitors (novobiocin, ART-558, RP6685) in combination with a variety of drugs and investigational agents in selected tumor cell lines The POL inhibitors (novobiocin, ART-558, and RP6685) were evaluated both individually and in combination with standard of care and investigational anticancer small molecules within a complex spheroid model of solid tumors. . […]
Parameter call: string, one of Yes for active, No for inactive

Query: Please let me know the test result on file for CCc1cc2c(N3CCc4c(cc(Cn5ccnc5)cc4-c4cn(C)nc4C(F)(F)F)C3=O)cc(C)nc2c(OC)n1 + Nc1ccc(C#CCN(C(=O)Cc2ncc(C(F)(F)F)cc2C(F)(F)F)c2ccc(F)cc2)nn1 .
Reply: No

Query: What classification did O=C(c1cc(Cc2n[nH]c(=O)c3ccccc23)ccc1F)N1CCN(C(=O)C2CC2)CC1 + COC1C(OC(N)=O)C(O)C(Oc2ccc3c(O)c(NC(=O)c4ccc(O)c(CC=C(C)C)c4)c(=O)oc3c2C)OC1(C)C end up with in this test?
Reply: No
